system: HEK-293T; test: Multiplex assay against HEK293T; format: toxicity, cell-based; conditions: human, 24 h, 10 µM, compound concentration 10 uM, replicate 2;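 as to Population Tubulin-Different-Phenotype (%): share of the cells with healthy nuclei that show this phenotype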
propertyLabel: Population Tubulin-Different-Phenotype (%)
Give the number; % is assumed, so skip it.

Value of Population Tubulin-Different-Phenotype (%) reported for the molecule Cc1csc2c(N[C@@H](C)CN3CCN(S(=O)(=O)c4ccc(Cl)c(Cl)c4)CC3)ncnc12 is 71

Value of Population Tubulin-Different-Phenotype (%) reported for the molecule Cn1cncc1[C@@](O)(COc1ccc(C#N)cc1-c1ccc(OC(F)(F)F)cc1)c1ccc(C#N)cc1 [A-108] is 97

Value of Population Tubulin-Different-Phenotype (%) reported for the molecule CNc1nc(NCc2ccc(NS(C)(=O)=O)cc2Cl)cc(-c2ccccn2)n1 is 95

Value of Population Tubulin-Different-Phenotype (%) reported for the molecule CC(C)NCC(O)COc1ccc(CCOCC2CC2)cc1.Cl (stereo not given) [BETAXOLOL HYDROCHLORIDE] is 82

====

tested on: U2OS; assay: Multiplex assay against U2OS; format: toxicity, cell-based; conditions: human, 12 h, 10 µM, compound concentration 10 uM, replicate 1
Attribute: Population Pyknosed Nuclei (%)
Give the number; % is assumed, so skip it.

Solved cases below.
COc1cc2nccc(Oc3ccc(NC(=O)Nc4cc(C)on4)c(Cl)c3)c2cc1OC.O; 25
CCN(CC)CCCCNc1ncc2cc(-c3cc(OC)cc(OC)c3)c(NC(=O)NC(C)(C)C)nc2n1 [PD-173074]; 26
COc1cc(-n2cnc3cc(-c4ccc(Cl)cc4)sc3c2=O)ccc1OCCN1CCCC1; 54
Cc1[nH]c(/C=C2\C(=O)Nc3ccc(S(=O)(=O)N(C)c4cccc(Cl)c4)cc32)c(C)c1C(=O)N1CCN(C)CC1; 11

Value of Population Pyknosed Nuclei (%) reported for the molecule CC(C)NCC(O)COc1ccc(CCOCC2CC2)cc1.Cl (stereo not given) [BETAXOLOL HYDROCHLORIDE] is 16

====

test system: Fibroblast; test: Multiplex assay against human fibroblast; format: toxicity, cell-based; conditions: 48 h, 10 µM, compound concentration 10 uM, replicate 1
propertyLabel: Total Cell Count

CC[C@H](C)C(=O)O[C@H]1C[C@@H](C)C=C2C=C[C@H](C)[C@H](CC[C@@H]3C[C@@H](O)CC(=O)O3)[C@H]21 [LOVASTATIN]; 115
C[C@@]1(C(=O)Nc2ccc(F)nc2)CCCN1c1nc(Nc2cc(C3CC3)n[nH]2)c2cccn2n1 [BMS-754807]; 73
OC1(c2ccc(Cl)cc2)CCN(Cc2c[nH]c3ccccc23)CC1; 191
CNc1nc(NCc2ccc(NS(C)(=O)=O)cc2Cl)cc(-c2ccccn2)n1; 168
NC(=O)Nc1cc(-c2cccc(F)c2)sc1C(=O)N[C@H]1CCCNC1 [AZD-7762]; 162

Value of Total Cell Count reported for the molecule CCn1c(=O)c(-c2ccc(Cl)cc2Cl)cc2cnc(Nc3ccc(N4CCNCC4)c(F)c3)nc21 is 255

Value of Total Cell Count reported for the molecule CN(C)CC#Cc1ccc(OCCCc2sc(N3CCc4cccc(C(=O)Nc5nc6ccccc6s5)c4C3)nc2C(=O)O)c(F)c1 [A-1155463] is 135

Value of Total Cell Count reported for the molecule Cc1c(-c2ccc(O)cc2)n(Cc2ccc(OCCN3CCCCCC3)cc2)c2ccc(O)cc12 [BAZEDOXIFENE] is 112

====

test system: HEK-293T; test: Multiplex assay against HEK293T; type: toxicity, cell-based; conditions: human, 12 h, 10 µM, compound concentration 10 uM, replicate 2
Rule: TRUE for Population Healthy Nuclei (%) not less than 20%, FALSE for anything less.

Look over these answered cases.
Cc1nc(-c2ccc(-c3ccc(C(=O)N4CCc5cc6c(cc54)C4(CCN(C)CC4)CO6)cc3)c(C)c2)no1; FALSE
CN(C)CC#Cc1ccc(OCCCc2sc(N3CCc4cccc(C(=O)Nc5nc6ccccc6s5)c4C3)nc2C(=O)O)c(F)c1; TRUE
COc1cccc([C@@H](C)NCCCc2ccccc2Cl)c1.Cl [TECALCET HYDROCHLORIDE]; TRUE

IN: Textbook exercise: given the entry CN1CCN(CCOc2cc(OC3CCOCC3)c3c(Nc4c(Cl)ccc5c4OCO5)ncnc3c2)CC1 , state whether its Population Healthy Nuclei (%) is greater than or equal to 20%.
OUT: TRUE

IN: Textbook exercise: given the entry Cl.N#Cc1ccc2[nH]cc(CCCCN3CCN(c4ccc5oc(C(N)=O)cc5c4)CC3)c2c1 [VILAZODONE HYDROCHLORIDE] , state whether its Population Healthy Nuclei (%) is greater than or equal to 20%.
OUT: FALSE

IN: Textbook exercise: given the entry Cc1sc2c(c1C)C(c1ccc(Cl)cc1)=N[C@@H](CC(=O)OC(C)(C)C)c1nnc(C)n1-2 , state whether its Population Healthy Nuclei (%) is greater than or equal to 20%.
OUT: TRUE

IN: Textbook exercise: given the entry Cc1csc2c(N[C@@H](C)CN3CCN(S(=O)(=O)c4ccc(Cl)c(Cl)c4)CC3)ncnc12 , state whether its Population Healthy Nuclei (%) is greater than or equal to 20%.
OUT: FALSE

IN: Textbook exercise: given the entry Cc1nc(Nc2n[nH]c3c2CN(C(=O)N[C@H](CN(C)C)c2ccccc2)C3(C)C)c2sccc2n1 , state whether its Population Healthy Nuclei (%) is greater than or equal to 20%.
OUT: TRUE

====

system: Fibroblast; assay: Multiplex assay against human fibroblast; format: toxicity, cell-based; settings: 48 h, 1 µM, compound concentration 1 uM, replicate 1
propertyLabel: Population Healthy Nuclei (%)
Give the number; % is assumed, so skip it.

CN1CCC[C@@H]1CCO[C@](C)(c1ccccc1)c1ccc(Cl)cc1.O=C(O)/C=C/C(=O)O [CLEMASTINE FUMARATE]; 45
CN(C)C(=O)/C(C#N)=C/c1ccc(-c2nc3cnc4[nH]ccc4c3n2C2CCCCC2)o1; 37
CN(C)C(=O)N[C@H]1CC[C@H](CCN2CCN(c3cccc(Cl)c3Cl)CC2)CC1.Cl [CARIPRAZINE HYDROCHLORIDE]; 46
O=C1NCN(c2ccccc2)C12CCN(CCCOc1ccc(F)cc1)CC2 [SPIRAMIDE]; 45
COc1ncc(-c2ccc3nccc(-c4ccnnc4)c3c2)cc1NS(=O)(=O)c1ccc(F)cc1F; 48

Value of Population Healthy Nuclei (%) reported for the molecule C[C@@H](NCCCc1cccc(C(F)(F)F)c1)c1cccc2ccccc12.Cl [CINACALCET HYDROCHLORIDE] is 52

Value of Population Healthy Nuclei (%) reported for the molecule Cn1cc(-c2[nH]c3cc(NC(=O)[C@H](N)C4CCCCC4)cc4c3c2C=NNC4=O)cn1 is 49

Value of Population Healthy Nuclei (%) reported for the molecule Cc1csc2c(N[C@@H](C)CN3CCN(S(=O)(=O)c4ccc(Cl)c(Cl)c4)CC3)ncnc12 is 53

====

Attribute: Population Hoechst High Intensity Objects (%)
tested on: U2OS; assay: Multiplex assay against U2OS; format: toxicity, cell-based; conditions: human, 48 h, 1 µM, compound concentration 1 uM, replicate 2
Give the number; % is assumed, so skip it.

Solved cases below.
CN(C)C(=O)N[C@H]1CC[C@H](CCN2CCN(c3cccc(Cl)c3Cl)CC2)CC1.Cl [CARIPRAZINE HYDROCHLORIDE]; 2
Cc1c(-c2ccc(O)cc2)n(Cc2ccc(OCCN3CCCCCC3)cc2)c2ccc(O)cc12; 3
c1cn2cc(-c3ccc4cn[nH]c4c3)nc(Nc3ccc(N4CCOCC4)cc3)c2n1; 3
CN1CCN(CCOc2cc(OC3CCOCC3)c3c(Nc4c(Cl)ccc5c4OCO5)ncnc3c2)CC1; 6
Cc1cc(C)cc(-c2cnc3cc(Cl)c(-c4cccc(O)c4)cc3c2OCCCN)c1; 5
CN1CCCC(n2nc(Cc3ccc(Cl)cc3)c3ccccc3c2=O)CC1.Cl (stereo not drawn) [AZELASTINE HYDROCHLORIDE]; 7
C=CC(=O)Nc1cccc(C(=O)Nc2ccc(Nc3cc(-c4[nH]c(SC)nc4C)ccn3)cc2)c1; 4

Now consider the entry below.
Value of Population Hoechst High Intensity Objects (%) reported for the compound CN(C)C(=O)/C(C#N)=C/c1ccc(-c2nc3cnc4[nH]ccc4c3n2C2CCCCC2)o1 is 1

====

system: HEK-293T; assay: Multiplex assay against HEK293T; type: toxicity, cell-based; settings: human, 24 h, 10 µM, compound concentration 10 uM, replicate 2
Attribute: Population Normal (%)
Give the number; % is assumed, so skip it.

Solved cases below.
Cc1cc(C)cc(-c2cnc3cc(Cl)c(-c4cccc(O)c4)cc3c2OCCCN)c1; 91
Cc1nc(Nc2n[nH]c3c2CN(C(=O)N[C@H](CN(C)C)c2ccccc2)C3(C)C)c2sccc2n1; 92
CN1CCN(c2ccc(OC(F)(F)F)c(Nc3ncc4c(n3)-c3c(c(C(N)=O)nn3CCO)CC4)c2)CC1; 95

Value of Population Normal (%) reported for the compound O=C1NCN(c2ccccc2)C12CCN(CCCOc1ccc(F)cc1)CC2 [SPIRAMIDE] is 98

Value of Population Normal (%) reported for the compound CN1CCC[C@@H]1CCO[C@](C)(c1ccccc1)c1ccc(Cl)cc1.O=C(O)/C=C/C(=O)O [CLEMASTINE FUMARATE] is 93

Value of Population Normal (%) reported for the compound Cc1sc2c(c1C)C(c1ccc(Cl)cc1)=N[C@@H](CC(=O)OC(C)(C)C)c1nnc(C)n1-2 is 94

Value of Population Normal (%) reported for the compound COc1ncc(-c2ccc3nccc(-c4ccnnc4)c3c2)cc1NS(=O)(=O)c1ccc(F)cc1F is 88

Value of Population Normal (%) reported for the compound C=CC(=O)Nc1ccc2ncnc(Nc3ccc(OCc4cccc(F)c4)c(Cl)c3)c2c1.Cc1ccc(S(=O)(=O)O)cc1 is 90
